# Assay notes: nonspecific calcium rise without TRPC4 – cell-based, HEK293 mu-opioid receptor line, counter-screen for TRPC4 activator project, confirmation (AID 449723);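 also: counter screen cells carry the mu-opioid receptor alone and lack TRPC4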; as to activation: reference of the scale not given here
# Recorded conditions: HEK293 mu-opioid cells, Fluo-4 calcium fluorescence, at 10 µM; hits give high values
Activity calls are given as the source filed them.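 The calls were made as follows: active = hit in primary screen, with calcium signal over 5 SD above buffer well mean in both duplicates; inactive = the rest.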

Compound	activation
CC(=O)OCC1O[C@@H](O[C@@H]2C[C@H]3C(C)(C)[C@H](OC(C)=O)CC[C@]3(C)[C@H]3CC[C@]45C[C@]4(CC[C@H]5[C@@H](C)C[C@@H](O)[C@H](O)C(C)(C)O)[C@@]32C)[C@H](O)[C@@H](O)[C@@H]1O (stereo not given in full)	28.8% (active)
CCC1(C(=O)c2ccccc2)C(c2ccc([N+](=O)[O-])cc2)C1(C(=O)OC)C(=O)OC (stereo not given)	inactive
CC(C)c1ccccc1NC(=S)NN(Cc1ccccc1)c1ccccc1	inactive
OCC1(Cc2ccccc2)CCCN(Cc2cnn(-c3ccccc3)c2)C1 (stereo not given)	inactive
Cc1nn(-c2ccccc2)c2nc(-c3ccccc3)cc(C(=O)N3CCOCC3)c12	inactive
